Source listed as patent US11198713B2.

Target: full-length beta-catenin (Axin site) (Homo sapiens)
Construct: 15 nM full-length beta-catenin, 20 nM FITC labeled peptide in buffer
Experiment: Competition fluorescence polarization assay (Axin site probe)
Assay type: binding
Conditions: competition fluorescence polarization, Table 2; read-out: in vitro FP EC50
pEC50: −log10 of the molar value.
pEC50 by entry:

MOLECULE: CC[C@H](C)[C@@H]1NC(=O)[C@H](Cc2c[nH]cn2)NC(=O)[C@H](C)NC(=O)[C@H](CC(=O)O)NC(=O)[C@H](CC(C)C)NC(=O)[C@H]([C@@H](C)CC)NC(=O)[C@](C)(NC(C)=O)CCCCCCC=CCOC(=O)N2CC[C@@](C(=O)N[C@@H](CCCNC(=N)N)C(=O)N[C@H](C(=O)N[C@@H](Cc3c[nH]c4ccccc34)C(N)=O)C(C)C)(C2)NC1=O [FP0220c, Ac-R8-I-L-D-A-H-I-MB-R-V-W-NH2]
TARGET UNDER TEST: full-length beta-catenin (Axin site) (Homo sapiens)
pEC50: > 7.00
//
MOLECULE: CC[C@H](C)[C@@H]1NC(=O)[C@H](Cc2c[nH]cn2)NC(=O)[C@H](C)NC(=O)[C@H](CC(=O)O)NC(=O)[C@H](CC(C)C)NC(=O)[C@H]([C@@H](C)CC)NC(=O)[C@](C)(NC(=O)[C@H](C)NC(C)=O)CCCCCCC=CCOC(=O)N2CC[C@@](C(=O)N[C@@H](C)C(=O)N[C@H](C(=O)N[C@@H](Cc3c[nH]c4ccccc34)C(N)=O)C(C)C)(C2)NC1=O [FP0410c, Ac-A-R8-I-L-D-A-H-I-MB-A-V-W-NH2]
TARGET UNDER TEST: full-length beta-catenin (Axin site) (Homo sapiens)
pEC50: 6.30 to 7.00

Let's switch to this molecule now.
Inquiry: Return reported pEC50. Input molecule: CC[C@H](C)[C@@H]1NC(=O)[C@H](Cc2c[nH]cn2)NC(=O)[C@H](C)NC(=O)[C@H](CC(=O)O)NC(=O)[C@H](CC(C)C)NC(=O)[C@H]([C@@H](C)CC)NC(=O)[C@](C)(NC(=O)[C@H](C)NC(C)=O)CCCCCC=CCOC(=O)N(C)C[C@@](C)(C(=O)N[C@@H](CCCNC(=N)N)C(=O)N[C@H](C(=O)N[C@@H](Cc2c[nH]c3ccccc23)C(N)=O)C(C)C)NC1=O [FP0495c, Ac-A-R7-I-L-D-A-H-I-MD-R-V-W-NH2]
Reply text: 6.30 to 7.00

---

Target: full-length beta-catenin (Axin site) (Homo sapiens, UniProt P35222)
Construct: 15 nM full-length beta-catenin, 20 nM FITC labeled peptide in buffer
Assay: Competition fluorescence polarization assay (Axin site probe)
Format: binding
Settings: competition fluorescence polarization, Table 2; read-out: in vitro FP EC50
Description: FIG. 1. […] Peptide solutions were prepared in buffer (50 mM Tris pH 8.0, 250 mM NaCl, 2% glycerol, 0.5 mM EDTA, 0.02% w/v sodium azide) using a 3-fold serial dilution from 5 μM. […] Equal volume of the titrated peptide was added to the plate and incubated protected from light for 15 minutes prior to read. Reads were performed on a Spectramax M5 (Molecular Devices) in duplicate. FIG. 7. […] Reads were performed on a Spectramax M5 (Molecular Devices) in duplicate. […]
PROPERTY LABEL: EC50

MOLECULE: CC[C@H](C)[C@@H]1NC(=O)[C@H](Cc2ccccn2)NC(=O)[C@H](C)NC(=O)[C@H](CC(=O)O)NC(=O)[C@H](CC(C)C)NC(=O)[C@H]([C@@H](C)CC)NC(=O)[C@](C)(NC(=O)[C@H](C)NC(C)=O)CCCCCCC=CCOC(=O)N2CC[C@@](C(=O)N[C@H](C(=O)N[C@H](C(=O)N[C@@H](Cc3c[nH]c4ccccc34)C(N)=O)C(C)C)[C@@H](C)CC)(C2)NC1=O (single isomer, unassigned) [FP0556c Isomer 2, Ac-A-R8-I-L-D-A-2pyr-I-MB-I-V-W-NH2]
TARGET UNDER TEST: full-length beta-catenin (Axin site) (Homo sapiens, UniProt P35222)
PROPERTY LABEL: EC50
RESULT: > 5 µM

Let's switch to this molecule now.
Inquiry: Return reported EC50. Input molecule: CC[C@H](C)[C@@H]1NC(=O)[C@@](C)(NC(=O)[C@H](CCC(N)=O)NC(=O)[C@@H]2CCCN2C(C)=O)CN(C)C(=O)OCC=CCCC[C@@](C)(C(=O)N[C@@H](Cc2c[nH]cn2)C(=O)N[C@H](C(=O)N[C@@H](CCCNC(=N)N)C(=O)N[C@@H](CCCNC(=N)N)C(=O)N[C@H](C(=O)N[C@@H](Cc2c[nH]c3ccccc23)C(=O)N[C@@H](CCCNC(=N)N)C(N)=O)C(C)C)C(C)C)NC(=O)[C@H](CC(=O)O)NC(=O)[C@H](CC(C)C)NC1=O (single isomer, unassigned) [FP0778c, Ac-P-Q-MD-I-L-D-S5-H-V-R-R-V-W-R-NH2]
Reply text: 0.5 to 5 µM

---

Molecular target: full-length beta-catenin (Axin site) (Homo sapiens, UniProt P35222)
Construct: 15 nM full-length beta-catenin, 20 nM FITC labeled peptide in buffer
Sequence (P35222 1-781): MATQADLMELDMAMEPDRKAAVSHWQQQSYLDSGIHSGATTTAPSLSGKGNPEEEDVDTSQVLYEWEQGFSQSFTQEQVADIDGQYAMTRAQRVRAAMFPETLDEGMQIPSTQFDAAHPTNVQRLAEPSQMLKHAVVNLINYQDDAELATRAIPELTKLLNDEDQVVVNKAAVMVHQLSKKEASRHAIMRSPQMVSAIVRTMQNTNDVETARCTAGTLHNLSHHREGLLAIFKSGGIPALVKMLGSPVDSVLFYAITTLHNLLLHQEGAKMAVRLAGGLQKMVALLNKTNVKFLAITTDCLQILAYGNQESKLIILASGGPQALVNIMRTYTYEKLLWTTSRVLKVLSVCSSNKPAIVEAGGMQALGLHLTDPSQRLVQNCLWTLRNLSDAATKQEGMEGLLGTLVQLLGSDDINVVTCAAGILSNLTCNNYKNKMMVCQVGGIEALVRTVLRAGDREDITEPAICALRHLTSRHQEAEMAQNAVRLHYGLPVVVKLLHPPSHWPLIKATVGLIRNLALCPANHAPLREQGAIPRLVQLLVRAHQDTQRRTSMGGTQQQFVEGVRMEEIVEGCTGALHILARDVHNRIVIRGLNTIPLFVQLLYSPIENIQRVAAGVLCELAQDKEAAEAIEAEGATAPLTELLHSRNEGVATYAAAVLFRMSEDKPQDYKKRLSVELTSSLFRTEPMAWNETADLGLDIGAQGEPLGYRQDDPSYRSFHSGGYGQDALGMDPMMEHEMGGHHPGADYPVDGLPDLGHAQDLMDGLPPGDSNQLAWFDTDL
Assay: Competition fluorescence polarization assay (Axin site probe)
Format: binding
Conditions: competition fluorescence polarization, Table 2; read-out: in vitro FP EC50
EC50 by entry:

Inquiry: Return reported EC50. Input compound: CC[C@H](C)[C@@H]1NC(=O)[C@@]2(NC(=O)[C@H](CCC(N)=O)NC(=O)[C@@H]3CCCN3C(C)=O)CCN(CC=CCCC[C@](C)(C(=O)N[C@@H](Cc3c[nH]cn3)C(=O)N[C@H](C(=O)N[C@@H](CCCNC(=N)N)C(=O)N[C@@H](CCCNC(=N)N)C(=O)N[C@H](C(=O)N[C@@H](Cc3c[nH]c4ccccc34)C(=O)N[C@@H](CCCNC(=N)N)C(N)=O)C(C)C)C(C)C)NC(=O)[C@H](CC(=O)O)NC(=O)[C@H](CC(C)C)NC1=O)C2 (single isomer, unassigned) [FP0743a, Ac-P-Q-MC-I-L-D-R5-H-V-R-R-V-W-R-NH2]
Reply text: > 5 µM

Inquiry: Return reported EC50. Input compound: CC[C@H](C)[C@@H]1NC(=O)[C@](C)(NC(=O)[C@H](CCC(N)=O)NC(=O)[C@@H]2CCCN2C(C)=O)CCCC=CCOC(=O)N(C)CC[C@](C)(C(=O)N[C@@H](Cc2c[nH]cn2)C(=O)N[C@H](C(=O)N[C@@H](CCCNC(=N)N)C(=O)N[C@@H](CCCNC(=N)N)C(=O)N[C@H](C(=O)N[C@@H](Cc2c[nH]c3ccccc23)C(=O)N[C@@H](CCCNC(=N)N)C(N)=O)C(C)C)C(C)C)NC(=O)[C@H](CC(=O)O)NC(=O)[C@H](CC(C)C)NC1=O (single isomer, unassigned) [FP0776c, Ac-P-Q-R5-I-L-D-MG-H-V-R-R-V-W-R-NH2]
Reply text: 0.5 to 5 µM

---

Target: full-length beta-catenin (Axin site) (Homo sapiens)
Construct: 15 nM full-length beta-catenin, 20 nM FITC labeled peptide in buffer
Assay: Competition fluorescence polarization assay (Axin site probe)
Format: binding
Settings: competition with FITC labeled Axin-site probe, 15 nM full-length beta-catenin; read-out: FP EC50
pEC50 by entry:
# pEC50 is unitless: minus log10 of the molar concentration; print number only

Inquiry: Return reported pEC50. Input compound: CC[C@H](C)[C@@H]1NC(=O)[C@@](C)(NC(=O)[C@H](CCC(N)=O)NC(=O)[C@@H]2CCCN2C(C)=O)CCN(C)C(=O)OCC=CCCC[C@@](C)(C(=O)N[C@@H](Cc2c[nH]cn2)C(=O)N[C@H](C(=O)N[C@@H](CCCNC(=N)N)C(=O)N[C@@H](CCCNC(=N)N)C(=O)N[C@H](C(=O)N[C@@H](Cc2c[nH]c3ccccc23)C(=O)N[C@@H](CCCNC(=N)N)C(N)=O)C(C)C)C(C)C)NC(=O)[C@H](CC(=O)O)NC(=O)[C@H](CC(C)C)NC1=O (single isomer, unassigned) [FP-0779c, Ac-P-Q-SdN-I-L-D-S5-H-V-R-R-V-W-R-NH2]
Reply text: 5.89

Inquiry: Return reported pEC50. Input compound: CC[C@H](C)[C@@H]1NC(=O)[C@](C)(NC(=O)[C@H](CCC(N)=O)NC(=O)[C@@H]2CCCN2C(C)=O)CCCCC=CCOC(=O)N2CC[C@](C(=O)N[C@@H](Cc3c[nH]cn3)C(=O)N[C@H](C(=O)N[C@@H](CCCNC(=N)N)C(=O)N[C@@H](CCCNC(=N)N)C(=O)N[C@H](C(=O)N[C@@H](Cc3c[nH]c4ccccc34)C(=O)N[C@@H](CCCNC(=N)N)C(N)=O)C(C)C)C(C)C)(C2)NC(=O)[C@H](CC(=O)O)NC(=O)[C@H](CC(C)C)NC1=O (single isomer, unassigned) [FP-0767c, Ac-P-Q-R6-I-L-D-PR-H-V-R-R-V-W-R-NH2]
Reply text: 6.96

Inquiry: Return reported pEC50. Input compound: CC[C@H](C)[C@@H]1NC(=O)[C@](C)(NC(=O)[C@H](CCC(N)=O)NC(=O)[C@@H]2CCCN2C(C)=O)CCCN(C)CC=CCCC[C@](C)(C(=O)N[C@@H](Cc2c[nH]cn2)C(=O)N[C@H](C(=O)N[C@@H](CCCNC(=N)N)C(=O)N[C@@H](CCCNC(=N)N)C(=O)N[C@H](C(=O)N[C@@H](Cc2c[nH]c3ccccc23)C(=O)N[C@@H](CCCNC(=N)N)C(N)=O)C(C)C)C(C)C)NC(=O)[C@H](CC(=O)O)NC(=O)[C@H](CC(C)C)NC1=O (single isomer, unassigned) [FP-0783, Ac-P-Q-ReN-I-L-D-R5-H-V-R-R-V-W-R-NH2]
Reply text: 5.85
